Hello, the source for this data is ChEMBL document CHEMBL1201862, in case you need it.

System: TK-10
Test: NCI tumour cell line growth inhibition, 48 h
Active and inactive are the calls of the source. Cut-off read from the data, not from the text of the source: active = GI50 up to about 1.1 µM and inactive = higher.
Readings of GI50 for the listed compounds
ASSAY_METRIC: GI50

[[record]]
compound = "N#CC(NNC(=O)c1ccccc1O)c1ccccc1O (stereo not drawn)"
assay_target = "TK-10"
observed = "68.9 µM (inactive)"

[[record]]
compound = "Cc1ccc(/C=C2\\CCC/C(=C\\c3ccc(O)c(CN4CCCCC4)c3)C2=O)cc1"
assay_target = "TK-10"
observed = "14.6 µM (inactive)"

[[record]]
compound = "C[N+]1(CCCC[N+]2(C)CCCCCCC2)CCCCCCC1"
assay_target = "TK-10"
observed = "> 100 µM (inactive)"

[[record]]
compound = "CCCCCC1=C2C(c3ccc(OC)cc3)=C(N)C(c3ccc(OC)cc3)=C3NC(=O)C(C=C1)C32 (stereo not drawn)"
assay_target = "TK-10"
observed = "60.7 µM (inactive)"

[[record]]
compound = "COc1c(C)c(C/C=C(\\C)CC/C=C(\\C)CC/C=C(\\C)CCC=C(C)C)c(OC)c(OC)c1OC"
assay_target = "TK-10"
observed = "> 100 µM (inactive)"

[[record]]
compound = "COC1=C(OC)C(O)(c2ccccc2)C1=O (stereo not drawn)"
assay_target = "TK-10"
observed = "22.2 µM (inactive)"

[[record]]
compound = "CS(=O)(=O)C1S(=O)(=O)OCCOS1(=O)=O"
assay_target = "TK-10"
observed = "> 100 µM (inactive)"

[[record]]
compound = "O=C(CCN1CCOCC1)Nc1ccc2sc3ccccc3c(=O)c2n1"
assay_target = "TK-10"
observed = "37.4 µM (inactive)"

[[record]]
compound = "O=P1(O)c2ccccc2Nc2cc(C(F)(F)F)ccc21"
assay_target = "TK-10"
observed = "> 100 µM (inactive)"

[[record]]
compound = "O=C(/C=C/c1ccccc1O)C(c1ccccc1)c1ccccc1"
assay_target = "TK-10"
observed = "> 100 µM (inactive)"

[[record]]
compound = "Nc1cc(Cl)cc2cc(Cl)cnc12"
assay_target = "TK-10"
observed = "> 100 µM (inactive)"

[[record]]
compound = "NNC(=O)CCC(=O)Nc1ccc(Cl)cc1Cl"
assay_target = "TK-10"
observed = "> 100 µM (inactive)"

[[record]]
compound = "CCOC(=O)NC(C(F)(F)F)(C(F)(F)F)P(=O)(OC(C)C)OC(C)C"
assay_target = "TK-10"
observed = "> 100 µM (inactive)"

[[record]]
compound = "O=C(O)C1C2OC(C(Br)C2Br)C1C(=O)O (stereo not drawn)"
assay_target = "TK-10"
observed = "> 100 µM (inactive)"

[[record]]
compound = "COc1ccc(N2C(=O)/C(=C/c3ccc(N(CCC#N)CCC#N)cc3)N=C2c2ccccc2)c(OC)c1"
assay_target = "TK-10"
observed = "> 100 µM (inactive)"

[[record]]
compound = "O=C(Nc1ccccc1)N(C1=NCC(CI)S1)c1ccc(F)c(F)c1 (stereo not drawn)"
assay_target = "TK-10"
observed = "44 µM (inactive)"

[[record]]
compound = "COc1cc([C@@H]2c3cc4c(cc3[C@@H](/N=C/c3ccc(C(=O)O[C@H]5C[C@H]6OC[C@@]6(OC(C)=O)[C@H]6[C@H](OC(=O)c7ccccc7)[C@]7(O)C[C@H](OC(=O)[C@H](OC(=O)c8ccc(/C=N/[C@@H]9c%10cc%11c(cc%10[C@@H](c%10cc(OC)c(O)c(OC)c%10)[C@H]%10C(=O)OC[C@@H]%109)OCO%11)cc8)[C@@H](NC(=O)c8ccccc8)c8ccccc8)C(C)=C([C@@H](OC(C)=O)C(=O)[C@]56C)C7(C)C)cc3)C3COC(=O)C32)OCO4)cc(C)c1O (stereo partly drawn)"
assay_target = "TK-10"
observed = "> 50 µM (inactive)"

[[record]]
compound = "CC1=C(C(=O)NNC(=O)C(N)=O)CC(C(=O)NNC(=O)C(N)=O)=C(C)N1"
assay_target = "TK-10"
observed = "> 100 µM (inactive)"

